Reported T½ values are given for each entry in this list.
target: T1, cyBCMA (cynomolgus, UniProt A0A2K5UD97 1-53); assay: SPR, immobilised IgG, 37° C
T1 construct: Soluble analyte in SPR; construct not described; also called cyno BCMA
T1 sequence (A0A2K5UD97 entry or part of it): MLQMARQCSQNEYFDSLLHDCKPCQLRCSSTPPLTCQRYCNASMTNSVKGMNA

Binder: L3.PY/L1.PS/H2.HA (antibody, V domains shown, IgG in the assay) VH: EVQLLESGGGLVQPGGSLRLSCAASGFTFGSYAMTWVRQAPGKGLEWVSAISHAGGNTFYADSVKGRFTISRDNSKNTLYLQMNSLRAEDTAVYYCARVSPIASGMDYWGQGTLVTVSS VL: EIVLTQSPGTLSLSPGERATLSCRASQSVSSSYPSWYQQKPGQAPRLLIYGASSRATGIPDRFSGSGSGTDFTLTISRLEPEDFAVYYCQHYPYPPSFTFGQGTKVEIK
Test result: 4.3 min
//
Binder: L3.PY/L1.AH/P6E01 (antibody, V domains shown, IgG in the assay) VH: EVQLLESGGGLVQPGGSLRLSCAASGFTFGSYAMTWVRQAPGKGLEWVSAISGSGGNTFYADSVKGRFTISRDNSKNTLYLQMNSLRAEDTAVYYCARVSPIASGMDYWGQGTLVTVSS VL: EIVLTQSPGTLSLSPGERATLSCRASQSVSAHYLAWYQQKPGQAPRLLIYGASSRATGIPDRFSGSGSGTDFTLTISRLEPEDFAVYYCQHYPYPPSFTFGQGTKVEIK
Test result: 2.02 min

Input line: Given the binder L3.PY/L1.PS/P6E01 (antibody, V domains shown, IgG in the assay) VH: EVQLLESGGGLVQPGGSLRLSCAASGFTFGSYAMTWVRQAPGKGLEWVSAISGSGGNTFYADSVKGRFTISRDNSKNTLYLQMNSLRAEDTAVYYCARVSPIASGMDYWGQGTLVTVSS VL: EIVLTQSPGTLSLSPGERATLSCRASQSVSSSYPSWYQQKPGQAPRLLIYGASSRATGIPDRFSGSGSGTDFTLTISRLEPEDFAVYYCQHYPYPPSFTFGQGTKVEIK , what is its reported T½?
Output line: 1.91 min

Entry source: patent US20240018252A1
